biological target: CPP32 (Homo sapiens, UniProt P42574); test: Dissociation constant Ki and irreversible rate constant k3 for irreversible inhibitors (CPP32); type: biochemical; settings: continuous assay 60 min, reaction initiated by adding enzyme to substrate-inhibitor mixture
The reader will find reported log10 Ki values listed item by item below.
// do not treat as linear: log10 of Ki, unit nM

log10 Ki for CC(C)[C@H](NC(=O)C(=O)Nc1cccc2ccccc12)C(=O)N[C@@H](CC(=O)O)C(=O)COc1ccnc(C(F)(F)F)n1 ? 1.81

Repeat with CC(C)[C@H](NC(=O)C(=O)NC(c1ccccc1)c1ccccc1)C(=O)N[C@@H](CC(=O)O)C(=O)COc1c(F)c(F)cc(F)c1F 2.95

Repeat with C[C@H](NC(=O)C(=O)Nc1ccccc1C(C)(C)C)C(=O)N[C@@H](CC(=O)O)C(=O)COP(=O)(c1ccccc1)c1ccccc1 [Example 47] 1.38

###

The reader will find reported CPP32 k3/Ki values listed item by item below.
biological target: CPP32 (Homo sapiens, UniProt P42574); assay: Dissociation constant Ki and irreversible rate constant k3 for irreversible inhibitors (CPP32); assay type: biochemical; conditions: continuous assay 60 min, reaction initiated by adding enzyme to substrate-inhibitor mixture

Consider the worked cases shown below.
CPP32 k3/Ki for C[C@H](NC(=O)C(=O)Nc1ccccc1C(C)(C)C)C(=O)N[C@@H](CC(=O)O)C(=O)COC(=O)c1c(Cl)cccc1Cl [Example 76] ? 62,900 moles^−1 seconds^−1

Repeat with C[C@H](NC(=O)C(=O)Nc1cccc2c1CCCC2)C(=O)N[C@@H](CC(=O)O)C(=O)COc1c(F)c(F)cc(F)c1F 118,000 moles^−1 seconds^−1

Continuing:
CPP32 k3/Ki for C[C@H](NC(=O)C(=O)Nc1ccccc1C(C)(C)C)C(=O)N[C@@H](CC(=O)O)C(=O)COc1ccccc1F ? 67,700 moles^−1 seconds^−1

###

molecular target: MCH-5 (Homo sapiens, UniProt Q14790); assay: Dissociation constant Ki and irreversible rate constant k3 for irreversible inhibitors (Mch5); format: biochemical; conditions: continuous assay 60 min, reaction initiated by adding enzyme to substrate-inhibitor mixture
Sequence (Q14790 217-374 limits assumed, species assumed): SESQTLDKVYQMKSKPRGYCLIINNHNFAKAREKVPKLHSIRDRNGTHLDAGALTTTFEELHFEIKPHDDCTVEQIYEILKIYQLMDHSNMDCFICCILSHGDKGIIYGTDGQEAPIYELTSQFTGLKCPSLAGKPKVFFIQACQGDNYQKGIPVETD
Sequence (Q14790 385-479 limits assumed, species assumed): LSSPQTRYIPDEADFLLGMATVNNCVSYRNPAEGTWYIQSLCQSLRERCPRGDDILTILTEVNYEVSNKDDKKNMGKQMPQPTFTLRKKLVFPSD
The reader will find reported pKi values listed item by item below.
pKi is a log-scale quantity: -log10 of the concentration expressed in molar.

pKi for CC(C)[C@H](NC(=O)C(=O)NC(c1ccccc1)c1ccccc1)C(=O)N[C@@H](CC(=O)O)C(=O)COc1c(F)c(F)cc(F)c1F [Example 81] ? 7.44

Repeat with CC(C)[C@H](NC(=O)C(=O)Nc1ccncc1)C(=O)N[C@@H](CC(=O)O)C(=O)COc1c(F)c(F)cc(F)c1F [Example 101] 5.81

Repeat with C[C@H](NC(=O)C(=O)Nc1ccccc1C(C)(C)C)C(=O)N[C@@H](CC(=O)O)C(=O)COC(=O)c1c(Cl)cccc1Cl [Example 37] 7.08

Continuing:
pKi for C[C@H](NC(=O)C(=O)NC1CCCCC1)C(=O)N[C@@H](CC(=O)O)C(=O)COC(=O)c1c(Cl)cccc1Cl [Example 55] ? 8.59

Repeat with C[C@H](NC(=O)C(=O)Nc1ccccc1-c1ccccc1)C(=O)N[C@@H](CC(=O)O)C(=O)COC(=O)c1c(Cl)cccc1Cl [Example 29] 7.77

Repeat with C[C@H](NC(=O)C(=O)Nc1ccccc1I)C(=O)N[C@@H](CC(=O)O)C(=O)COP(=O)(c1ccccc1)c1ccccc1 [Example 74] 7.15

###

Target: UniProt P29452
Sequence (P29452 123-296 limits assumed): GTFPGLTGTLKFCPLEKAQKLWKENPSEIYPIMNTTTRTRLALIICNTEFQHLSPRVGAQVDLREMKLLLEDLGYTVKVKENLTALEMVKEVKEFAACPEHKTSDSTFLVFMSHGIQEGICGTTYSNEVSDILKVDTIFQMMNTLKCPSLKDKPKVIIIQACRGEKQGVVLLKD
Sequence (P29452 315-402 limits assumed): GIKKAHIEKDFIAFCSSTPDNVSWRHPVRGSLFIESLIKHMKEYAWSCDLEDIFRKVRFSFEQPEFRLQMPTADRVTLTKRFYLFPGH
Assay: Dissociation constant Ki and irreversible rate constant k3 for irreversible inhibitors (ICE)
Assay type: biochemical
Settings: continuous assay 60 min, reaction initiated by adding enzyme to substrate-inhibitor mixture
quantity_measured: pKi
pKi is a log-scale quantity: -log10 of the concentration expressed in molar.

Provide the documented pKi with UniProt P29452 as the system for CC(C)[C@H](NC(=O)C(=O)Nc1ccncc1)C(=O)N[C@@H](CC(=O)O)C(=O)COc1c(F)c(F)cc(F)c1F [Example 101] 4.65

Repeat with CC(C)[C@H](NC(=O)C(=O)Nc1cccc2ccccc12)C(=O)N[C@@H](CC(=O)O)C(=O)COc1cccc2ccccc12 [Example 18] 7.48

Continuing:
Provide the documented pKi with UniProt P29452 as the system for CC(C)[C@H](NC(=O)C(=O)NC12CC3CC(CC(C3)C1)C2)C(=O)N[C@@H](CC(=O)O)C(=O)COc1c(F)c(F)cc(F)c1F [Example 89] 7.28

Repeat with CC(C)[C@H](NC(=O)C(=O)Nc1c(F)cccc1F)C(=O)N[C@@H](CC(=O)O)C(=O)COc1c(F)c(F)cc(F)c1F [Example 108] 8.32

Repeat with C[C@H](NC(=O)C(=O)NCCc1ccccc1)C(=O)N[C@@H](CC(=O)O)C(=O)COP(=O)(c1ccccc1)c1ccccc1 [Example 72] 7.92

###

Molecular target: CPP32 (Homo sapiens, UniProt P42574)
Sequence (P42574 29-175 limits assumed): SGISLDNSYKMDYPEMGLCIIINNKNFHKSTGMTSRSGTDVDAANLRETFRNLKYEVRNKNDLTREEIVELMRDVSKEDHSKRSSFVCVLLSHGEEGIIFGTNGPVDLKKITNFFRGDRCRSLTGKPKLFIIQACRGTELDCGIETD
Sequence (P42574 176-277 limits assumed): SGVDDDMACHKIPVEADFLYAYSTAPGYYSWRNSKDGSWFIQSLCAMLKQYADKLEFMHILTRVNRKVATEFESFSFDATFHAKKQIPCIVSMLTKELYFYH
Test: Dissociation constant Ki and irreversible rate constant k3 for irreversible inhibitors (CPP32)
Type: biochemical
Conditions: continuous assay 60 min, reaction initiated by adding enzyme to substrate-inhibitor mixture
quantity_measured: CPP32 k3/Ki

Consider the worked cases shown below.
CPP32 k3/Ki for CC(C)[C@H](NC(=O)C(=O)Nc1cccc2ccccc12)C(=O)N[C@@H](CC(=O)O)C(=O)COc1c(-c2ccccc2)oc2ccccc2c1=O ? 43,600 moles^−1 seconds^−1

Repeat with C[C@H](NC(=O)C(=O)Nc1ccccc1-c1ccccc1)C(=O)N[C@@H](CC(=O)O)C(=O)COC(=O)c1c(Cl)cccc1Cl 388,000 moles^−1 seconds^−1

Repeat with C[C@H](NC(=O)C(=O)Nc1cc(C(C)(C)C)ccc1C(C)(C)C)C(=O)N[C@@H](CC(=O)O)C(=O)COP(=O)(c1ccccc1)c1ccccc1 104,000 moles^−1 seconds^−1

Repeat with C[C@H](NC(=O)C(=O)Nc1ccccc1Cl)C(=O)N[C@@H](CC(=O)O)C(=O)COP(=O)(c1ccccc1)c1ccccc1 [Example 57] 564,000 moles^−1 seconds^−1

Repeat with CC(C)[C@H](NC(=O)C(=O)Nc1ccccc1F)C(=O)N[C@@H](CC(=O)O)C(=O)COc1c(F)c(F)cc(F)c1F 5,560 moles^−1 seconds^−1

Continuing:
CPP32 k3/Ki for CC(C)[C@H](NC(=O)C(=O)Nc1ccccc1C(C)(C)C)C(=O)N[C@@H](CC(=O)O)C(=O)COc1c(F)c(F)cc(F)c1F ? 27,700 moles^−1 seconds^−1

Repeat with C[C@H](NC(=O)C(=O)NCCc1ccccc1)C(=O)N[C@@H](CC(=O)O)C(=O)COP(=O)(c1ccccc1)c1ccccc1 169,000 moles^−1 seconds^−1

Repeat with C[C@H](NC(=O)C(=O)Nc1cc(C(F)(F)F)ccc1N1CCCC1)C(=O)N[C@@H](CC(=O)O)C(=O)COP(=O)(c1ccccc1)c1ccccc1 78,600 moles^−1 seconds^−1

Repeat with CC(C)[C@H](NC(=O)C(=O)Nc1ccc(F)cc1)C(=O)N[C@@H](CC(=O)O)C(=O)COc1c(F)c(F)cc(F)c1F 36,300 moles^−1 seconds^−1

Repeat with CC(C)[C@H](NC(=O)C(=O)Nc1ccccc1Cc1ccccc1)C(=O)N[C@@H](CC(=O)O)C(=O)COc1c(F)c(F)cc(F)c1F 54,800 moles^−1 seconds^−1

Repeat with CC(C)[C@H](NC(=O)C(=O)Nc1ccccn1)C(=O)N[C@@H](CC(=O)O)C(=O)COc1c(F)c(F)cc(F)c1F 9,850 moles^−1 seconds^−1

Repeat with C[C@H](NC(=O)C(=O)NCc1cccc2ccccc12)C(=O)N[C@@H](CC(=O)O)C(=O)COc1c(F)c(F)cc(F)c1F 158,000 moles^−1 seconds^−1

Repeat with CCCCCCCc1ccc(NC(=O)C(=O)N[C@H](C(=O)N[C@@H](CC(=O)O)C(=O)COc2c(F)c(F)cc(F)c2F)C(C)C)cc1 11,200 moles^−1 seconds^−1

Repeat with C[C@H](NC(=O)C(=O)Nc1cc(C(C)(C)C)ccc1C(C)(C)C)C(=O)N[C@@H](CC(=O)O)C(=O)COC(=O)c1c(Cl)cccc1Cl 189,000 moles^−1 seconds^−1

Repeat with C[C@H](NC(=O)C(=O)NC1CCCCC1)C(=O)N[C@@H](CC(=O)O)C(=O)COC(=O)c1c(Cl)cccc1Cl 1,174,000 moles^−1 seconds^−1

Repeat with C[C@H](NC(=O)C(=O)Nc1ccc(F)cc1)C(=O)N[C@@H](CC(=O)O)C(=O)COC(=O)c1c(Cl)cccc1Cl 22,700 moles^−1 seconds^−1

Repeat with C[C@H](NC(=O)C(=O)Nc1cccc2c1CCCC2)C(=O)N[C@@H](CC(=O)O)C(=O)COC(=O)c1c(Cl)cccc1Cl [Example 49] 260,000 moles^−1 seconds^−1
